test system: Human immunodeficiency virus 1; test: Antiviral activity against HIV-1 3B infected in human C8166 cells assessed as inhibition of virus-induced cytopathic effect after 3 days by Syncytia Assay; assay type: functional, organism-based; conditions: Human immunodeficiency virus 1, 3B, C8166, 72 h
Each record here notes measured log10 of EC50.
assay.endpoint: log10 of EC50 (log10 of the value in µM)

smiles.entry	tgt	log10 of EC50
COc1c2c(cc(CC(C)=O)c1-c1c(CC(C)=O)cc3c(c1OC)OCO3)OCO2	Human immunodeficiency virus 1	0.59
Cc1cn([C@H]2C[C@H](N=[N+]=[N-])[C@@H](CO)O2)c(=O)[nH]c1=O	Human immunodeficiency virus 1	-1.47
COc1cc2c(c(OC)c1OC)-c1c(cc3c(c1OC)OCO3)C[C@H](C)[C@H](C)[C@H]2OC(C)=O	Human immunodeficiency virus 1	0.67
COc1c(O)c(C(=O)O)c2c(c1OC)-c1c(cc3c(c1OC)OCO3)[C@H](O)[C@H](C)[C@H](C)C2	Human immunodeficiency virus 1	0.15
C/C=C(/C)C(=O)O[C@H]1c2cc(OC)c(OC)c(OC)c2-c2c(cc(OC)c(OC)c2OC)C[C@H](C)[C@]1(C)O	Human immunodeficiency virus 1	1.06
COc1cc2c(c(OC)c1OC)-c1c3cc4c(c1OC[C@@H](C)[C@@](C)(O)C(=O)O[C@@H]2[C@@](C)(O)[C@@H](C)C3)OCO4	Human immunodeficiency virus 1	0.99
COc1cc2c(c(OC)c1OC)-c1c(cc3c(c1OC)OCO3)[C@H](OC(=O)C=C(C)C)[C@@](C)(O)[C@@H](C)C2	Human immunodeficiency virus 1	0.92
COc1cc(CO)c(-c2c(C[C@H](C)C(C)=O)cc3c(c2OC)OCO3)c(OC)c1OC	Human immunodeficiency virus 1	1.10
COc1cc2c(c(OC)c1OC)-c1c(cc(O)c(OC)c1OC)[C@H](OCC(C)C)[C@@H](C)[C@@H](C)C2	Human immunodeficiency virus 1	0.54
COc1cc2c(c(OC)c1OC)-c1c(cc(OC)c(OC)c1OC)[C@H](OCC(C)C)[C@@H](C)[C@@H](C)C2	Human immunodeficiency virus 1	0.77
COc1c(O)cc2c(c1OC)-c1c(cc3c(c1OC)OCO3)[C@H](OC(=O)C(C)C)[C@H](C)[C@H](C)C2	Human immunodeficiency virus 1	0.91
COc1c(OC)c(C(=O)O)c2c(c1OC)-c1c(cc3c(c1OC)OCO3)[C@H](O)[C@H](C)[C@H](C)C2	Human immunodeficiency virus 1	0.34
COc1cc(CC(C)=O)c(-c2c(CC(C)=O)cc(OC)c(OC)c2O)c(O)c1OC	Human immunodeficiency virus 1	0.62
COc1cc2c(c(OC)c1OC)-c1c(cc(O)c(OC)c1OC)C[C@H](C)[C@@](C)(O)C2	Human immunodeficiency virus 1	0.91
COc1cc2c(c(O)c1OC)-c1c(cc(OC)c(OC)c1OC)[C@H](OC(=O)c1ccccc1)[C@@H](C)[C@@](C)(O)[C@H]2OC(C)=O	Human immunodeficiency virus 1	0.92

* * *

assay: Therapeutic index, ratio of CC50 for human C8166 cells to EC50 for HIV-1 3B; type: cell-based; settings: read-out: Ratio CC50/EC50
Each record here notes measured selectivity ratio.

smiles.entry	selectivity ratio
C/C=C(/C)C(=O)O[C@H]1c2cc(OC)c(OC)c(OC)c2-c2c(cc(OC)c(OC)c2OC)C[C@H](C)[C@]1(C)O	7.4
COc1c(O)c(C(=O)O)c2c(c1OC)-c1c(cc3c(c1OC)OCO3)[C@H](O)[C@H](C)[C@H](C)C2	55.3
COc1cc2c(c(OC)c1OC)-c1c(cc3c(c1OC)OCO3)[C@H](OC(=O)C=C(C)C)[C@@](C)(O)[C@@H](C)C2	7.5
COc1cc2c(c(OC)c1OC)-c1c3cc4c(c1OC[C@@H](C)[C@@](C)(O)C(=O)O[C@@H]2[C@@](C)(O)[C@@H](C)C3)OCO4	18.9
COc1c(O)cc2c(c1OC)-c1c(cc3c(c1OC)OCO3)[C@H](OC(=O)C(C)C)[C@H](C)[C@H](C)C2	18.1
COc1c(OC)c(C(=O)O)c2c(c1OC)-c1c(cc3c(c1OC)OCO3)[C@H](O)[C@H](C)[C@H](C)C2	40.3
COc1c2c(cc(CC(C)=O)c1-c1c(CC(C)=O)cc3c(c1OC)OCO3)OCO2	14.1
COc1cc2c(c(OC)c1OC)-c1c(cc(O)c(OC)c1OC)C[C@H](C)[C@@](C)(O)C2	15.1

* * *

assay: Cytotoxicity against human C8166 cells after 3 days by MTT assay; format: cell-based
Each record here notes measured CC50 at 72 h.
assay.endpoint: CC50 at 72 h (µM)

compound	cmp	numeric.result
COc1cc2c(c(OC)c1OC)-c1c(cc(O)c(OC)c1OC)C[C@H](C)[C@@](C)(O)C2	=	124
COc1cc2c(c(OC)c1OC)-c1c(cc3c(c1OC)OCO3)C[C@H](C)[C@H](C)[C@H]2OC(C)=O [RUBSCHISANTHERIN]	=	85.2
COc1cc2c(c(OC)c1OC)-c1c(cc(OC)c(OC)c1OC)[C@H](OCC(C)C)[C@@H](C)[C@@H](C)C2	>	200
COc1c2c(cc(CC(C)=O)c1-c1c(CC(C)=O)cc3c(c1OC)OCO3)OCO2	=	54.5
COc1cc2c(c(OC)c1OC)-c1c(cc3c(c1OC)OCO3)[C@H](OC(=O)C=C(C)C)[C@@](C)(O)[C@@H](C)C2 [GOMISIN F]	=	61.9
COc1cc2c(c(O)c1OC)-c1c(cc(OC)c(OC)c1OC)[C@H](OC(=O)c1ccccc1)[C@@H](C)[C@@](C)(O)[C@H]2OC(C)=O	=	147
COc1cc2c(c(OC)c1OC)-c1c(cc(O)c(OC)c1OC)[C@H](OCC(C)C)[C@@H](C)[C@@H](C)C2	>	200
COc1cc2c(c(OC)c1OC)-c1c3cc4c(c1OC[C@@H](C)[C@@](C)(O)C(=O)O[C@@H]2[C@@](C)(O)[C@@H](C)C3)OCO4	=	186
COc1cc(CO)c(-c2c(C[C@H](C)C(C)=O)cc3c(c2OC)OCO3)c(OC)c1OC [SCHISPHENONE]	=	156
Cc1cn([C@H]2C[C@H](N=[N+]=[N-])[C@@H](CO)O2)c(=O)[nH]c1=O [ZIDOVUDINE]	>	200
COc1c(OC)c(C(=O)O)c2c(c1OC)-c1c(cc3c(c1OC)OCO3)[C@H](O)[C@H](C)[C@H](C)C2	=	86.7
COc1cc(CC(C)=O)c(-c2c(CC(C)=O)cc(OC)c(OC)c2O)c(O)c1OC	=	38.8
COc1c(O)c(C(=O)O)c2c(c1OC)-c1c(cc3c(c1OC)OCO3)[C@H](O)[C@H](C)[C@H](C)C2	=	75.2
COc1c(O)cc2c(c1OC)-c1c(cc3c(c1OC)OCO3)[C@H](OC(=O)C(C)C)[C@H](C)[C@H](C)C2	=	149
C/C=C(/C)C(=O)O[C@H]1c2cc(OC)c(OC)c(OC)c2-c2c(cc(OC)c(OC)c2OC)C[C@H](C)[C@]1(C)O	=	84.7

* * *

assay: Therapeutic index, ratio of CC50 for human C8166 cells to EC50 for HIV-1 3B; type: cell-based; conditions: read-out: Ratio CC50/EC50

smiles.entry	selectivity ratio
COc1cc2c(c(O)c1OC)-c1c(cc(OC)c(OC)c1OC)[C@H](OC(=O)c1ccccc1)[C@@H](C)[C@@](C)(O)[C@H]2OC(C)=O	17.8
COc1cc2c(c(OC)c1OC)-c1c(cc(OC)c(OC)c1OC)[C@H](OCC(C)C)[C@@H](C)[C@@H](C)C2	> 33.7
COc1cc2c(c(OC)c1OC)-c1c(cc3c(c1OC)OCO3)C[C@H](C)[C@H](C)[C@H]2OC(C)=O	18.2
COc1cc(CC(C)=O)c(-c2c(CC(C)=O)cc(OC)c(OC)c2O)c(O)c1OC	9.2
COc1cc2c(c(OC)c1OC)-c1c(cc(O)c(OC)c1OC)[C@H](OCC(C)C)[C@@H](C)[C@@H](C)C2	> 58
COc1cc(CO)c(-c2c(C[C@H](C)C(C)=O)cc3c(c2OC)OCO3)c(OC)c1OC	12.3

Source of measurements: ChEMBL document CHEMBL2385038
